# ASSAY REMARKS: in vivo
# Parameters: species or system SCID mice
# CONDITION INFO: SCID, mouse, iv, 10 pmol peptide, total radioactivity, %ID/g tissue, Spleen
REPORTED ENDPOINT: tissue uptake at 4 h (%ID/g)
The reply should be a number in %ID/g, with the unit left off.

(Q) What value of tissue uptake at 4 h has been reported for the following compound? CSCC[C@H](NC(=O)[C@H](Cc1c[nH]c2ccccc12)NC(=O)CNC(=O)[C@H](Cc1ccc(O)cc1)NC(=O)[C@H](C)NC(=O)[C@@H](CCC(=O)O)NC(=O)[C@@H](CCC(=O)O)NC(=O)[C@@H](CCC(=O)O)NC(=O)[C@@H](CCC(=O)O)NC(=O)[C@@H](CCC(=O)O)NC(=O)[C@@H](CCC(=O)O)NC(=O)CN1CCN(CC(=O)O)CCN(CC(=O)O)CCN(CC(=O)O)CC1)C(=O)N[C@@H](CC(=O)O)C(=O)N[C@@H](Cc1ccccc1)C(N)=O [^111In-CP04, metal not drawn]
(A) 0.04

---

# ASSAY REMARKS: in vivo
# Set-up: species or system Swiss albino mice
# CONDITION INFO: Swiss albino, mouse, iv, 10 pmol peptide, total radioactivity, %ID/g tissue, Liver
REPORTED ENDPOINT: tissue uptake at 24 h (%ID/g)
The reply should be a number in %ID/g, with the unit left off.

(Q) What value of tissue uptake at 24 h has been reported for the following molecule? CSCC[C@H](NC(=O)[C@H](Cc1c[nH]c2ccccc12)NC(=O)CNC(=O)[C@H](Cc1ccc(O)cc1)NC(=O)[C@H](C)NC(=O)[C@@H](CCC(=O)O)NC(=O)[C@@H](CCC(=O)O)NC(=O)[C@@H](CCC(=O)O)NC(=O)[C@@H](CCC(=O)O)NC(=O)[C@@H](CCC(=O)O)NC(=O)[C@@H](CCC(=O)O)NC(=O)CN1CCN(CC(=O)O)CCN(CC(=O)O)CCN(CC(=O)O)CC1)C(=O)N[C@@H](CC(=O)O)C(=O)N[C@@H](Cc1ccccc1)C(N)=O [^111In-CP04, metal not drawn]
(A) 0.06

---

# ASSAY REMARKS: in vivo
# Design: species or system Swiss albino mice
# CONDITION INFO: Swiss albino, mouse, iv, 10 pmol peptide, total radioactivity, %ID/g tissue, Kidneys
REPORTED ENDPOINT: tissue uptake at 72 h

(Q) What value of tissue uptake at 72 h has been reported for the following compound? CSCC[C@H](NC(=O)[C@H](Cc1c[nH]c2ccccc12)NC(=O)CNC(=O)[C@H](Cc1ccc(O)cc1)NC(=O)[C@H](C)NC(=O)[C@@H](CCC(=O)O)NC(=O)[C@@H](CCC(=O)O)NC(=O)[C@@H](CCC(=O)O)NC(=O)[C@@H](CCC(=O)O)NC(=O)[C@@H](CCC(=O)O)NC(=O)[C@@H](CCC(=O)O)NC(=O)CN1CCN(CC(=O)O)CCN(CC(=O)O)CCN(CC(=O)O)CC1)C(=O)N[C@@H](CC(=O)O)C(=O)N[C@@H](Cc1ccccc1)C(N)=O [^111In-CP04, metal not drawn]
(A) 2.62 %ID/g

---

# ASSAY REMARKS: in vivo
# Parameters: species or system Swiss albino mice
# CONDITION INFO: Swiss albino, mouse, iv, 10 pmol peptide, total radioactivity, %ID/g tissue, Stomach
REPORTED ENDPOINT: tissue uptake at 24 h
Don't forget the unit after the value.

(Q) What value of tissue uptake at 24 h has been reported for the following compound? CSCC[C@H](NC(=O)[C@H](Cc1c[nH]c2ccccc12)NC(=O)CNC(=O)[C@H](Cc1ccc(O)cc1)NC(=O)[C@H](C)NC(=O)[C@@H](CCC(=O)O)NC(=O)[C@@H](CCC(=O)O)NC(=O)[C@@H](CCC(=O)O)NC(=O)[C@@H](CCC(=O)O)NC(=O)[C@@H](CCC(=O)O)NC(=O)[C@@H](CCC(=O)O)NC(=O)CN1CCN(CC(=O)O)CCN(CC(=O)O)CCN(CC(=O)O)CC1)C(=O)N[C@@H](CC(=O)O)C(=O)N[C@@H](Cc1ccccc1)C(N)=O [^111In-CP04, metal not drawn]
(A) 1.48 %ID/g

---

# ASSAY REMARKS: in vivo
# Parameters: species or system Swiss albino mice
# CONDITION INFO: Swiss albino, mouse, iv, 10 pmol peptide, total radioactivity, %ID/g tissue, Muscle
REPORTED ENDPOINT: tissue uptake at 0.5 h (%ID/g)
The reply should be a number in %ID/g, with the unit left off.

(Q) What value of tissue uptake at 0.5 h has been reported for the following compound? CSCC[C@H](NC(=O)[C@H](Cc1c[nH]c2ccccc12)NC(=O)CNC(=O)[C@H](Cc1ccc(O)cc1)NC(=O)[C@H](C)NC(=O)[C@@H](CCC(=O)O)NC(=O)[C@@H](CCC(=O)O)NC(=O)[C@@H](CCC(=O)O)NC(=O)[C@@H](CCC(=O)O)NC(=O)[C@@H](CCC(=O)O)NC(=O)[C@@H](CCC(=O)O)NC(=O)CN1CCN(CC(=O)O)CCN(CC(=O)O)CCN(CC(=O)O)CC1)C(=O)N[C@@H](CC(=O)O)C(=O)N[C@@H](Cc1ccccc1)C(N)=O [^111In-CP04, metal not drawn]
(A) 0.59

---

# ASSAY REMARKS: in vivo
# Set-up: species or system Swiss albino mice
# CONDITION INFO: Swiss albino, mouse, iv, 10 pmol peptide, total radioactivity, %ID/g tissue, Intestines
REPORTED ENDPOINT: tissue uptake at 1 h (%ID/g)
The reply should be a number in %ID/g, with the unit left off.

(Q) What value of tissue uptake at 1 h has been reported for the following molecule? CSCC[C@H](NC(=O)[C@H](Cc1c[nH]c2ccccc12)NC(=O)CNC(=O)[C@H](Cc1ccc(O)cc1)NC(=O)[C@H](C)NC(=O)[C@@H](CCC(=O)O)NC(=O)[C@@H](CCC(=O)O)NC(=O)[C@@H](CCC(=O)O)NC(=O)[C@@H](CCC(=O)O)NC(=O)[C@@H](CCC(=O)O)NC(=O)[C@@H](CCC(=O)O)NC(=O)CN1CCN(CC(=O)O)CCN(CC(=O)O)CCN(CC(=O)O)CC1)C(=O)N[C@@H](CC(=O)O)C(=O)N[C@@H](Cc1ccccc1)C(N)=O [^111In-CP04, metal not drawn]
(A) 0.39

---

# ASSAY REMARKS: in vivo
# Set-up: species or system Swiss albino mice
# CONDITION INFO: Swiss albino, mouse, iv, 10 pmol peptide, total radioactivity, %ID/g tissue, Lung
REPORTED ENDPOINT: tissue uptake at 72 h

(Q) What value of tissue uptake at 72 h has been reported for the following compound? CSCC[C@H](NC(=O)[C@H](Cc1c[nH]c2ccccc12)NC(=O)CNC(=O)[C@H](Cc1ccc(O)cc1)NC(=O)[C@H](C)NC(=O)[C@@H](CCC(=O)O)NC(=O)[C@@H](CCC(=O)O)NC(=O)[C@@H](CCC(=O)O)NC(=O)[C@@H](CCC(=O)O)NC(=O)[C@@H](CCC(=O)O)NC(=O)[C@@H](CCC(=O)O)NC(=O)CN1CCN(CC(=O)O)CCN(CC(=O)O)CCN(CC(=O)O)CC1)C(=O)N[C@@H](CC(=O)O)C(=O)N[C@@H](Cc1ccccc1)C(N)=O [^111In-CP04, metal not drawn]
(A) 0.03 %ID/g

---

# ASSAY REMARKS: in vivo
# Design: species or system SCID mice
# CONDITION INFO: SCID, mouse, iv, 10 pmol peptide, total radioactivity, %ID/g tissue, Spleen
REPORTED ENDPOINT: tissue uptake at 24 h (%ID/g)
The reply should be a number in %ID/g, with the unit left off.

(Q) What value of tissue uptake at 24 h has been reported for the following compound? CSCC[C@H](NC(=O)[C@H](Cc1c[nH]c2ccccc12)NC(=O)CNC(=O)[C@H](Cc1ccc(O)cc1)NC(=O)[C@H](C)NC(=O)[C@@H](CCC(=O)O)NC(=O)[C@@H](CCC(=O)O)NC(=O)[C@@H](CCC(=O)O)NC(=O)[C@@H](CCC(=O)O)NC(=O)[C@@H](CCC(=O)O)NC(=O)[C@@H](CCC(=O)O)NC(=O)CN1CCN(CC(=O)O)CCN(CC(=O)O)CCN(CC(=O)O)CC1)C(=O)N[C@@H](CC(=O)O)C(=O)N[C@@H](Cc1ccccc1)C(N)=O [^111In-CP04, metal not drawn]
(A) 0.05

---

# ASSAY REMARKS: in vivo
# Design: species or system SCID mice
# CONDITION INFO: SCID, mouse, iv, 10 pmol peptide, total radioactivity, %ID/g tissue, Pancreas
REPORTED ENDPOINT: tissue uptake at 24 h

(Q) What value of tissue uptake at 24 h has been reported for the following compound? CSCC[C@H](NC(=O)[C@H](Cc1c[nH]c2ccccc12)NC(=O)CNC(=O)[C@H](Cc1ccc(O)cc1)NC(=O)[C@H](C)NC(=O)[C@@H](CCC(=O)O)NC(=O)[C@@H](CCC(=O)O)NC(=O)[C@@H](CCC(=O)O)NC(=O)[C@@H](CCC(=O)O)NC(=O)[C@@H](CCC(=O)O)NC(=O)[C@@H](CCC(=O)O)NC(=O)CN1CCN(CC(=O)O)CCN(CC(=O)O)CCN(CC(=O)O)CC1)C(=O)N[C@@H](CC(=O)O)C(=O)N[C@@H](Cc1ccccc1)C(N)=O [^111In-CP04, metal not drawn]
(A) 0.05 %ID/g
